Each item that follows carries a reported GI50.
- Tested on: LXFL 529
- Assay procedure: NCI tumour cell line growth inhibition, 48 h
Activity calls are given as the source filed them. Rule as the data show it: active = GI50 up to about 1.1 µM and inactive = higher.
Outcome measure: GI50

Compound: CC(=O)NNc1nc(C)c(C(=O)NNC(=O)C(=O)Nc2ccccc2C#N)s1
Outcome measure: GI50
Val: > 100 µM (inactive)
--
Compound: N#C/N=C(\NCCc1c[nH]c2ccccc12)NCc1ccccc1
Outcome measure: GI50
Val: 48.2 µM (inactive)
--
Compound: COc1ccc(N2C(=O)[C@H]3CC(C)c4c([nH]c5ccccc45)[C@H]3C2=O)cc1 (stereo partly specified)
Outcome measure: GI50
Val: 4.14 µM (inactive)
--
Compound: O=c1c(O)cccn1C1OC(CO)C(O)C1O (stereo unspecified)
Outcome measure: GI50
Val: > 100 µM (inactive)
--
Compound: C=C1CC2(OC1=O)c1ccccc1CCc1ccccc12
Outcome measure: GI50
Val: 1.7 µM (inactive)
--
Compound: CC1(O)CCC2(C)C(=O)C1(C)CCC21OCCO1 (stereo unspecified)
Outcome measure: GI50
Val: > 100 µM (inactive)

====

Each item that follows carries a reported GI50.
- Test system: RXF 393
- Assay procedure: NCI tumour cell line growth inhibition, 48 h
Active and inactive are the calls of the source. Rule as the data show it: active = GI50 up to about 1.1 µM and inactive = higher.
Outcome measure: GI50

Molecule: Cc1c2cnccc2c(C)c2c1c1ccccc1n2CC1CO1 (stereo unspecified)
Outcome measure: GI50
Val: 0.427 µM (active)

Molecule: CCOC(=O)C1=CC(C)(C(=O)OCC)Nc2c(nc(SC)[nH]c2=O)N1 (stereo unspecified)
Outcome measure: GI50
Val: > 10 µM (inactive)

Molecule: COc1cccc(CCNc2c(C#N)c3nc4ccccc4n3c3ccccc23)c1
Outcome measure: GI50
Val: 0.607 µM (active)

Molecule: Cc1ccc(C2=CC(=O)OC(C[P+](c3ccccc3)(c3ccccc3)c3ccccc3)(c3ccccc3)O2)cc1 (stereo unspecified)
Outcome measure: GI50
Val: 16.7 µM (inactive)

Molecule: CCN(CC)c1ccc2cc(C(=O)NCc3ccccc3)c(=N)oc2c1
Outcome measure: GI50
Val: 47.5 µM (inactive)

Molecule: CC(=O)OC(C#N)CC(C)(C)/[N+]([O-])=[N+](\[O-])C(C)(C)CC(C#N)OC(C)=O (stereo unspecified)
Outcome measure: GI50
Val: 12.8 µM (inactive)

====

Each item that follows carries a reported GI50.
- System: HCT-116
- Assay procedure: NCI tumour cell line growth inhibition, 48 h
Calls of active or inactive are those of the source. Rule as the data show it: active = GI50 up to about 1.1 µM and inactive = higher. Where a SMILES comes first, the peptide text is derived from it. [ ]: non-standard residue; d: D form. The star is where a group is joined. Hyp = O=C(O)[CH]1C[CH](O)CN1; Cbz = O=C(OCc1ccccc1)*
Outcome measure: GI50

Molecule: CN(C)C(=S)/N=c1\ss/c(=N/c2ccccc2)n1C
Val: 38.5 µM (inactive)

Molecule: CN1CC=C(C#CC(C)(C)O)CC1
Val: > 37.5 µM (inactive)

Molecule: NC(=O)CNC(=O)C1CC(O)CN1C(=O)C1CCCN1C(=O)OCc1ccccc1 (stereo not drawn) (Cbz-Pro-[Hyp]-Gly-NH2; configuration not given here)
Val: > 100 µM (inactive)

Molecule: C/C(=N\O)c1ccc(OCc2cc(C(F)(F)F)cc(C(F)(F)F)c2)cc1
Val: 31.3 µM (inactive)

Molecule: C=C1c2nc3ccccc3n2C=C(c2ccccc2)N1c1ccc(C)cc1
Val: 36.9 µM (inactive)

Molecule: CCOc1ccc(/C=C(\Cl)c2ccc(OC)cc2)cc1
Val: > 100 µM (inactive)

Molecule: NC(C/C=C/P(=O)(O)O)C(=O)O (stereo unspecified)
Val: > 100 µM (inactive)

Molecule: O=C(c1cccs1)N(C(=S)N1CCN(c2ccccn2)CC1)C1CCCCC1
Val: 49.3 µM (inactive)

Molecule: COc1ccc(C(CCC(C)=O)C(=O)O)cc1OC (stereo unspecified)
Val: > 100 µM (inactive)

Molecule: Fc1ccc2c(c1)nc1n2C(c2c(F)cccc2F)SC1 (stereo unspecified)
Val: 25.6 µM (inactive)

Molecule: O=C(O)CCCc1ccc2c(c1)CC1(C2)Cc2cc3c(cc2C1)CCCC3
Val: 2.56 µM (inactive)
